- assay_procedure: Drug level in brain of complete Freund's adjuvant-induced rat inflammatory pain model at 3 mg/kg, po after 1 hr
- Type: ADME, organism-based
- Design: dose 3 mg/kg, route oral
- assay_conditions: read-out: Drug uptake
quantity_measured: concentration at 1 h

Measured concentration at 1 h of `CC(C)COc1ccc(Cl)cc1-c1ccccc1-c1cccc(C(=O)[O-])n1.[Na+]` : 1480 nM

====

This section presents compounds with their documented pIC50 values.
- tested_on: Prostaglandin E2 receptor EP1 subtype (Homo sapiens, UniProt P34995)
- Sequence (P34995 whole entry): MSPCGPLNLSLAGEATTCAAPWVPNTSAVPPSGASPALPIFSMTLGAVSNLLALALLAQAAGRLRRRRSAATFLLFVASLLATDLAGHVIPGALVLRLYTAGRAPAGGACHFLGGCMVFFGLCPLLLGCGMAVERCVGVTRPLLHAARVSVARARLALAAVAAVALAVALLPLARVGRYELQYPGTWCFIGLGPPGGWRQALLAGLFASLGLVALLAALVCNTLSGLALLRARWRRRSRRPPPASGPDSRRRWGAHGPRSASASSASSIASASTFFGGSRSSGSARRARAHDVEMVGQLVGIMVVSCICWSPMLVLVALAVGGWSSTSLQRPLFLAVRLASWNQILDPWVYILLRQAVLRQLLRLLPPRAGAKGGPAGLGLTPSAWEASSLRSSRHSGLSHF
- assay_procedure: Binding affinity to EP1 receptor
A value of pIC50 is the negative decimal logarithm of a concentration given in moles per litre.

O=C(O)c1cccc(-c2ccccc2-c2cc(Cl)ccc2OCc2c(F)cc(F)cc2F)n1 | 7.90
O=C(O)c1cccc(-c2ccccc2-c2cc(Cl)ccc2OCc2ccc(Cl)cc2F)n1 | 7.70
O=C(O)c1cccc(-c2ccccc2-c2ccccc2OCc2ccccc2)c1 | 7.70
O=C(O)c1ccccc1-c1ccccc1-c1cc(Cl)ccc1OCc1ccccc1 | 7.70
O=C(O)c1cccc(-c2ccccc2-c2cc(Cl)ccc2OCc2ccccc2F)n1 | 7.40
O=C(O)c1cccc(-c2ccccc2-c2cc(Cl)ccc2OCc2ccc(F)cc2F)n1 | 8.40
CCC(=O)Nc1cc(C(=O)O)cc(-c2ccccc2-c2cc(Cl)ccc2OCc2ccccc2)c1 | 8.20
CC(C)COc1ccc(Cl)cc1-c1ccccc1-c1cccc(C(=O)[O-])n1.[Na+] | 7.80
O=C(O)c1cc(-c2ccccc2-c2ccccc2OCc2ccccc2)ccc1Cl | 6.90
O=C(O)c1ccc(F)c(-c2ccccc2-c2ccccc2OCc2ccccc2)c1 | 7.10

Please fill in: pIC50 reported for `O=C(O)c1cccc(-c2ccccc2-c2cc(Cl)ccc2OCc2ccc(F)cc2Cl)n1` = 7.20

# pIC50 (compound: `O=C(O)c1cc(F)cc(-c2ccccc2-c2ccccc2OCc2ccccc2)c1` ) is 7.20

Query `O=C(O)c1ccc(-c2ccccc2-c2cc(Cl)ccc2OCc2ccccc2)cc1` yields pIC50 of 6.10

`CCCOc1ccc(Cl)cc1-c1ccccc1-c1cccc(C(=O)O)n1` yielded pIC50 of 6.60

Record summary for `O=C(O)c1cccc(-c2ccccc2-c2cc(Cl)ccc2OCc2ccc(F)cc2)n1` : reported pIC50 = 8.30

Just so you know, measured pIC50 for `O=C(O)c1cccc(-c2ccccc2-c2cc(Cl)ccc2OCc2ccc(Br)cc2F)n1` came out at 7.30

The reported pIC50 of the compound `O=C(O)c1cccc(-c2ccccc2-c2cc(Cl)ccc2OCC2CCCC2)n1` was 6.80

====

- assay_procedure: Drug level in blood of sub-chronic rat joint pain efficacy model satellite animal group at 20 mg/kg bid measured on day 1 after 1 hr post dose
- Format: ADME, organism-based
- Set-up: dose 20 mg/kg
- assay_conditions: read-out: Drug uptake
quantity_measured: concentration at 1 h (µM)
Express it in µM; write the number only.

Short answer for `CC(C)COc1ccc(Cl)cc1-c1ccccc1-c1cccc(C(=O)[O-])n1.[Na+]` : concentration at 1 h was 25.9

====

- tested_on: Prostaglandin E2 receptor EP1 subtype (Homo sapiens, UniProt P34995)
- assay_procedure: Binding affinity to EP1 receptor
quantity_measured: IC50 (nM)
Numeric only. Scale: nM

A selection of reference data follows.
O=C(O)c1cccc(-c2ccccc2-c2cc(Cl)ccc2OCc2ccccc2)n1 | 10
CCCC(=O)Nc1cc(C(=O)O)cc(-c2ccccc2-c2cc(Cl)ccc2OCc2ccccc2)c1 | 2
CC(C)C(=O)Nc1cc(C(=O)O)cc(-c2ccccc2-c2cc(Cl)ccc2OCc2ccccc2)c1 | 10

Short answer for `Cc1c(C(=O)O)cccc1-c1ccccc1-c1ccccc1OCc1ccccc1` : IC50 was 501

====

- assay_procedure: Half life in rat at 1 mg/kg, iv
- Type: ADME, organism-based
- Set-up: dose 1 mg/kg, route intravenous
- assay_conditions: in vivo
quantity_measured: half-life (min)
Just the number in min, nothing appended.

`CC(C)COc1ccc(Cl)cc1-c1ccccc1-c1cccc(C(=O)[O-])n1.[Na+]` yielded half-life of 210

====

- assay_procedure: Ratio of drug level in brain to blood of sub-chronic rat joint pain efficacy model satellite animal group at 20 mg/kg bid measured on day 5
- Format: ADME, organism-based
- Set-up: dose 20 mg/kg
quantity_measured: Kp at 5 day
Reply with just the number.

# compound `CC(C)COc1ccc(Cl)cc1-c1ccccc1-c1cccc(C(=O)[O-])n1.[Na+]` ; its Kp at 5 day = 0.5

====

- assay_procedure: Ratio of drug level in brain to blood in complete Freund's adjuvant-induced rat inflammatory pain model 3 mg/kg, po after 1 hr
- Format: ADME, organism-based
- Set-up: dose 3 mg/kg, route oral
quantity_measured: Kp at 1 h
# answer = number (no unit)

Record `CC(C)COc1ccc(Cl)cc1-c1ccccc1-c1cccc(C(=O)[O-])n1.[Na+]` . Reported Kp at 1 h: 0.72

====

- assay_procedure: Ratio of drug level in brain to blood of sub-chronic rat joint pain efficacy model satellite animal group at 5 mg/kg bid measured on day 5
- Type: ADME, organism-based
- Design: dose 5 mg/kg
quantity_measured: Kp at 5 day

Record `CC(C)COc1ccc(Cl)cc1-c1ccccc1-c1cccc(C(=O)[O-])n1.[Na+]` , field Kp at 5 day: 0.54

====

- tested_on: Peroxisome proliferator-activated receptor delta (Homo sapiens)
- Sequence (Q03181 whole entry): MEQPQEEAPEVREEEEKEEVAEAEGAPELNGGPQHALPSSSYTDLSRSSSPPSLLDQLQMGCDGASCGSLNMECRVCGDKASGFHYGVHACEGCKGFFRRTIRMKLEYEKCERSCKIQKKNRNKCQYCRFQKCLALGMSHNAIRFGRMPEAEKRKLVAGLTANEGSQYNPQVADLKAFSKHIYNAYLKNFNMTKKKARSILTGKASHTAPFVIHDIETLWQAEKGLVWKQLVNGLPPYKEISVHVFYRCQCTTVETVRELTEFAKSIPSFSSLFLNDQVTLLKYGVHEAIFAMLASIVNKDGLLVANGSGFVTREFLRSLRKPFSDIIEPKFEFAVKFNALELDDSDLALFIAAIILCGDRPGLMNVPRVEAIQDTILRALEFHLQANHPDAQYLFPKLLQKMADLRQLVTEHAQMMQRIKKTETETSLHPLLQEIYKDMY
- assay_procedure: Binding affinity PPARdelta
pKi: −log10 of the molar value.
quantity_measured: pKi

Reported pKi of `CC(C)COc1ccc(Cl)cc1-c1ccccc1-c1cccc(C(=O)[O-])n1.[Na+]` : < 4.70

====

- assay_procedure: Solubility in fasted state simulated intestinal fluid after 24 hrs
- Type: physicochemical
quantity_measured: solubility at 24 h

The compound `CC(C)COc1ccc(Cl)cc1-c1ccccc1-c1cccc(C(=O)[O-])n1.[Na+]` showed solubility at 24 h equal to 1.05 mg/mL

====

- tested_on: Prostaglandin E2 receptor EP1 subtype (Homo sapiens)
- assay_procedure: Antagonist activity at EP1 receptor by FLIPR calcium mobilization assay
quantity_measured: Ki (nM)
API: value field is a number in nM; no unit string.

The value of Ki measured for the compound `CC(C)COc1ccc(Cl)cc1-c1ccccc1-c1cccc(C(=O)[O-])n1.[Na+]` turned out to be 2.51

====

- assay_procedure: Blood clearance in cynomolgus monkey at 1 mg/kg, iv
- Assay type: ADME, organism-based, Macaca fascicularis
- Parameters: dose 1 mg/kg, route intravenous
quantity_measured: clearance (mL/min/kg)
Give just the number in mL/min/kg; leave the unit off.

// field: clearance; key: `CC(C)COc1ccc(Cl)cc1-c1ccccc1-c1cccc(C(=O)[O-])n1.[Na+]` ; value = 26

====

- assay_procedure: Blood clearance in rat at 1 mg/kg, iv
- Format: ADME, organism-based
- Design: dose 1 mg/kg, route intravenous
quantity_measured: clearance

Consider `CC(C)COc1ccc(Cl)cc1-c1ccccc1-c1cccc(C(=O)[O-])n1.[Na+]` . Its measured clearance is 11 mL/min/kg

====

- assay_procedure: Half life in cynomolgus monkey at 1 mg/kg, iv
- Format: ADME, organism-based, Macaca fascicularis
- Set-up: dose 1 mg/kg, route intravenous
- assay_conditions: in vivo
quantity_measured: half-life (min)
Write the value in min as a bare number.

Item: `CC(C)COc1ccc(Cl)cc1-c1ccccc1-c1cccc(C(=O)[O-])n1.[Na+]` | half-life: 48

====

- assay_procedure: Drug level in blood of complete Freund's adjuvant-induced rat inflammatory pain model at 2 mg/kg, po after 1 hr
- Assay type: ADME, organism-based
- Design: dose 2 mg/kg, route oral
- assay_conditions: read-out: Drug uptake
quantity_measured: concentration at 1 h (µM)
Note: unit µM is implicit; provide only the numeric part.

The recorded concentration at 1 h for `CC(C)COc1ccc(Cl)cc1-c1ccccc1-c1cccc(C(=O)[O-])n1.[Na+]` is 2.14

====

- tested_on: Thromboxane A2 receptor (Homo sapiens, UniProt P21731)
- Sequence (P21731 whole entry): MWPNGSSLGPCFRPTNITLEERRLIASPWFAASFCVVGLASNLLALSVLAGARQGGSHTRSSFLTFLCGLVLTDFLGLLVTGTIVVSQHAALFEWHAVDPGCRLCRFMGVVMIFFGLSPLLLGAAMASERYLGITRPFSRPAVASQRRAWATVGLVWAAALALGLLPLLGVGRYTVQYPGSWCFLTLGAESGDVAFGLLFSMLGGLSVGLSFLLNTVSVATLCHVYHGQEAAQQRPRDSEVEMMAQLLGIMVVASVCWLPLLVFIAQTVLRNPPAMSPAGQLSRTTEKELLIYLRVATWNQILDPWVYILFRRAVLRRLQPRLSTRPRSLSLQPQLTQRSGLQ
- assay_procedure: Activity at TP receptor by FLIPR method
quantity_measured: IC50 (µM)
Quick reminder: number only, in µM, skip the unit.

The recorded IC50 for entry `CC(C)COc1ccc(Cl)cc1-c1ccccc1-c1cccc(C(=O)[O-])n1.[Na+]` equals 1.58

====

- tested_on: Peroxisome proliferator-activated receptor gamma (Homo sapiens, UniProt P37231)
- Sequence (P37231 whole entry): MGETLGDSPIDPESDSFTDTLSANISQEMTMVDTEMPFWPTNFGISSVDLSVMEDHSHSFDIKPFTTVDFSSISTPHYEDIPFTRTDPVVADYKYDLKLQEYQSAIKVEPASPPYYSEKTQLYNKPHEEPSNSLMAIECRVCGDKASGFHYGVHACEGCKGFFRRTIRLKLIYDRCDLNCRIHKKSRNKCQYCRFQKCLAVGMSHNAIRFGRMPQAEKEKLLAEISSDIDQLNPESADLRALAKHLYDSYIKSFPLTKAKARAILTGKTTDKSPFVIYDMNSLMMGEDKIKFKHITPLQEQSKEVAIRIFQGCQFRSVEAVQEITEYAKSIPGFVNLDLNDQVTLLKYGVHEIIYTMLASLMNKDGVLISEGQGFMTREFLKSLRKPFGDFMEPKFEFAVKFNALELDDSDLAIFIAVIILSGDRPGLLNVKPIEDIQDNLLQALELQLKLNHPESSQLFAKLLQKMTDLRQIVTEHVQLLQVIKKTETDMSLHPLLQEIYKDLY
- assay_procedure: Activity at PPARgamma
quantity_measured: EC50 (µM)
Output spec: scalar in µM, unitless text.

// assay Peroxisome proliferator-activated receptor gamma (Homo sapiens, UniProt P37231), entry `CC(C)COc1ccc(Cl)cc1-c1ccccc1-c1cccc(C(=O)[O-])n1.[Na+]` , EC50 value = 3.98
